Recorded values, source PubChem BioAssay (NCATS).

Tested on: CP201
Assay: qHTS profiling for inhibitors of Plasmodium falciparum proliferation (AID 504749); note: nearly all actives have a fitted effect of over 60% in size
Conditions: P. falciparum in erythrocytes, SYBR Green DNA, 72 h; series mostly up to 28.7 µM
Inconclusive results are not listed. Calls of active or inactive are those of the source. Calls come from the whole dose curve; as a rule, active = well fitted inhibition curve with a large enough effect; inconclusive = small, poorly fitted or top-dose-only effect; inactive = flat fitted curve, though single readings scatter.
The reply should name one outcome from t (active), f (inactive)

Use these answered entries as a reference point.
MOLECULE	CLASS ASSIGNMENT
C[C@H]1C[C@@H]2[C@@H]([C@@H](O)C[C@@]3(C)[C@H]2CC[C@]3(O)C(=O)CO)[C@@]2(C)C=CC(=O)C=C12	f
CN1c2cc(O)c(N=NC(N)=O)cc2CC1S(=O)(=O)O (centres undefined)	f
O=c1[nH]c(=O)n(C2CCCO2)cc1F (centres undefined)	f

Okay, next one:
*Q* Please let me know the test result on file for COC(=O)C1=C(C)NC(C)=C(C(=O)OCCN2CCN(C(c3ccccc3)c3ccccc3)CC2)C1c1cccc([N+](=O)[O-])c1 (centres undefined) .
*A* t
